experiment: gradient 5% acetonitrile 3 min, to 50% in 2 min, to 85% in 15 min, held 3 min, 100 µL/min; settings: column: Zorbax Extend-C18 2.1 x 50 mm; eluents: water / acetonitrile, 0.1% formic acid
assayEndpoint: RP-LC retention time (s)

* O=C(Nc1ccccc1F)N1C[C@H]2C[C@H](C1)[C@H]1CCCC(=O)N1C2 | 627
* CCN(Cc1ccccc1)C(=O)CN1C(=O)C(O)(c2cccc(F)c2)c2ccccc21 (stereo not given) | 655
* CC1(O)CCOC2(CCN(Cc3ccccc3OC(F)(F)F)CC2)C1 (stereo not given) | 632
* Cc1ccc(CN2CCCn3nc(C(=O)NCCc4c[nH]c5ccc(Cl)cc45)cc3C2=O)cc1 | 953
* CCC1CN2C=Nc3oc(C)c(C(=O)Nc4ccc(F)c(Cl)c4)c3C2=N1 (stereo not given) | 704
